These measurements were taken from the Human Domainome abundance scans (Beltran et al. 2025).

B1: POU domain, class 3, transcription factor 4, residues 280 to 335; numbered along this chain, P49335 (parent)
chain: KKRTSIEVSVKGVLETHFLKCPKPAAQEISSLADSLQLEKEVVRVWFCNRRQKEKR

- Variants of: B1
- assay-text: abundance fitness (aPCA) (normalised: wild type 0, dead -1); higher = more abundant; growth selection in yeast, the domain comes from the species named
- settings: Homo sapiens
Everything with abundance fitness lower than -0.2 is f; everything else, including exactly -0.2, is t.

Below, 5 variants whose answers are already recorded.
1. E28A = f
2. L32I = t
3. K2V = t
4. I6E = f
5. R56W = f

Please indicate if the recorded abundance fitness for "K20G" meets or exceeds -0.2.
f

What about "V13M" ?
t

Query "V43K" next
f
